Biological target: human PAH with the R408W mutation (Homo sapiens, UniProt P00439, R408W)
Construct: expressed in transfected cells
Sequence (P00439 1-452 R408W): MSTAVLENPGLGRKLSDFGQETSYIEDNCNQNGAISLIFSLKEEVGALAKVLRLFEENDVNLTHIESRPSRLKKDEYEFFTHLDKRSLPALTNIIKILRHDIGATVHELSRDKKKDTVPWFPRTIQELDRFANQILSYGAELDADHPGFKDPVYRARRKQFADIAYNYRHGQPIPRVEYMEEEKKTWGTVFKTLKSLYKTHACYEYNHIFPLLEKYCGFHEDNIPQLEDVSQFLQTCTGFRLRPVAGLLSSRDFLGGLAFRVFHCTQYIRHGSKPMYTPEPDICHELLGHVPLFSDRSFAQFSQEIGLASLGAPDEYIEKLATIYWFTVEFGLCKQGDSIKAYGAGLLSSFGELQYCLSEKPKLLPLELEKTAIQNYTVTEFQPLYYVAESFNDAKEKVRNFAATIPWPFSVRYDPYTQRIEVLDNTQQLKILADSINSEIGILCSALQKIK
Assay: Cell Based Phenylalanine Flux Assay
Settings: A375 cells expressing human R408W PAH; 24 hrs with compound; 13C-Tyrosine by LC-MS; average where tested multiple times; read-out: AC50
Catalogue of compounds with associated AC50

1) O=C(Cc1nncs1)N1CCc2[nH]cnc2C1c1nc2c(F)cccc2s1 (stereo not shown): > 5 µM

Lookup result for O=C(c1cc[nH]n1)N1CCc2[nH]cnc2C1c1nc2ccccc2[nH]1 (stereo not shown) ; measured AC50: 1 to 5 µM

Lookup result for O=C(Nc1ccc(F)cc1)N1CCc2[nH]cnc2C1c1nc2ccccc2s1 (stereo not shown) ; measured AC50: > 5 µM

Lookup result for O=C(C1CN(c2ccccn2)C1)N1CCc2[nH]cnc2C1c1nc2ccccc2s1 (stereo not shown) ; measured AC50: 1 to 5 µM

Lookup result for Cc1nnc(CC(=O)N2CCc3[nH]cnc3C2c2nc3ccccc3s2)o1 (stereo not shown) ; measured AC50: > 5 µM

Lookup result for CS(=O)(=O)N1CC(C(=O)N2CCc3[nH]cnc3C2c2nc3ccccc3s2)C1 (stereo not shown) ; measured AC50: 1 to 5 µM

Lookup result for Cn1nnc(C(=O)N2CCc3[nH]cnc3C2c2nc3c(F)cccc3s2)n1 (stereo not shown) ; measured AC50: 1 to 5 µM

Lookup result for O=C(c1nccs1)N1CCc2[nH]cnc2C1c1nc2ccc(Cl)cc2[nH]1 (stereo not shown) ; measured AC50: 1 to 5 µM

Lookup result for Cc1noc(C(=O)N2CCc3[nH]cnc3C2c2nc3ccccc3s2)n1 (stereo not shown) ; measured AC50: 1 to 5 µM

Lookup result for O=C(c1cnn2ccccc12)N1CCc2[nH]cnc2C1c1nc2ccc(Br)cc2s1 (stereo not shown) ; measured AC50: 1 to 5 µM

---

Catalogue of compounds with associated AC50
target: human PAH with the R408W mutation (Homo sapiens, UniProt P00439, R408W); construct: expressed in transfected cells; assay: Cell Based Phenylalanine Flux Assay; conditions: A375 cells expressing human R408W PAH; 24 hrs compound incubation; 13C-Tyrosine by LC-MS; average where tested multiple times; read-out: AC50

A selection of reference data follows.
1. O=C(c1cn[nH]c1Cl)N1CCc2[nH]cnc2[C@H]1c1nc2ccccc2s1 [Example 2036]: < 500 nM
2. O=C(CCc1ccc(F)cc1)N1CCc2[nH]cnc2[C@@H]1c1nc2ccccc2s1 [Example 1006]: > 5000 nM
3. O=C(c1nnc(-c2ccc(F)cc2F)o1)N1CCc2[nH]cnc2[C@@H]1c1nc2c(F)cccc2s1 [Example 1875]: 1000 to 5000 nM
4. O=C(c1nc(Cl)cs1)N1CCc2[nH]cnc2[C@@H]1c1nc2cc(F)ccc2s1 [Example 1298]: 1000 to 5000 nM
5. O=C(c1cnn2ccccc12)N1CCc2[nH]cnc2[C@@H]1c1nc2ccc(F)cc2s1 [Example 1100]: > 5000 nM

Lookup result for Cn1ncnc1C(=O)N1CCc2[nH]cnc2[C@H]1c1nc2ccccc2s1 [Example 1813] ; measured AC50: 500 to 1000 nM

Lookup result for O=C(c1cnn(CC2CC(F)(F)C2)c1Cl)N1CCc2[nH]cnc2[C@H]1c1nc2c(F)cccc2s1 [Example 1989] ; measured AC50: 1000 to 5000 nM

---

Target: human PAH with the R408W mutation (Homo sapiens, UniProt P00439, R408W)
Construct: expressed in transfected cells
Sequence (P00439 1-452 R408W): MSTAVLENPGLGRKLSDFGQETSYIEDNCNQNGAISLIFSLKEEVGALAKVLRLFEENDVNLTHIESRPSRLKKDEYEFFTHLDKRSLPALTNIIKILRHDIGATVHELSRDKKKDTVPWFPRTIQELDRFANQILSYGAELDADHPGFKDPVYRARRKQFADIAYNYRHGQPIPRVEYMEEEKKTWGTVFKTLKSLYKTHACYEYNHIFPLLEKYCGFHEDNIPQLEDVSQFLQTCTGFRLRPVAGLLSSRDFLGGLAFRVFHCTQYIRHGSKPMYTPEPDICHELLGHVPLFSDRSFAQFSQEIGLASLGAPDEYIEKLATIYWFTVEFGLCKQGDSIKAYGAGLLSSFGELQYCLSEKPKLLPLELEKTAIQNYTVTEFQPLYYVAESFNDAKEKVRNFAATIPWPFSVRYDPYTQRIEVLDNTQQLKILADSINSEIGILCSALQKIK
Test: Cell Based Phenylalanine Flux Assay
Conditions: A375 cells expressing human R408W PAH; 24 hrs compound incubation; 13C-Tyrosine by LC-MS; average where tested multiple times; read-out: AC50
Catalogue of compounds with associated AC50

A selection of reference data follows.
1. Cc1nc(-c2cnn(CC(F)(F)F)c2)oc1C(=O)N1CCc2[nH]cnc2[C@H]1c1nc2ccccc2s1 [Example 1413]: < 500 nM
2. Cc1nc(-c2cnn(C(C)C)c2)oc1C(=O)N1CCc2[nH]cnc2[C@@H]1c1nc2ccccc2s1 [Example 1424]: 1000 to 5000 nM
3. O=C(c1nnc(-c2cnn(C(F)F)c2)o1)N1CCc2[nH]cnc2[C@@H]1c1nc2c(F)cccc2s1 [Example 1823]: 1000 to 5000 nM
4. Cc1n[nH]cc1-c1nnc(C(=O)N2CCc3[nH]cnc3[C@H]2c2nc3ccccc3s2)o1 [Example 1941]: < 500 nM
5. O=C(c1oc(N2CCOCC2)nc1C(F)F)N1CCc2[nH]cnc2[C@@H]1c1nc2c(F)cccc2s1 [Example 2026]: 1000 to 5000 nM

Attention now shifts to the item below.
# lookup: O=C(c1cnn(CC2CC2)c1Cl)N1CCc2[nH]cnc2[C@@H]1c1nc2c(F)cccc2s1 [Example 1972] on human PAH with the R408W mutation (Homo sapiens, UniProt P00439, R408W), AC50 = 1000 to 5000 nM

---

Catalogue of compounds with associated AC50
target: human PAH with the R408W mutation (Homo sapiens, UniProt P00439, R408W); construct: expressed in transfected cells; experiment: Cell Based Phenylalanine Flux Assay; settings: A375 cells expressing human R408W PAH; 24 hrs compound incubation; 13C-Tyrosine by LC-MS; average where tested multiple times; read-out: AC50

A selection of reference data follows.
1. O=C(c1oc(C2CC2)nc1C(F)F)N1CCc2[nH]cnc2[C@@H]1c1nc2ccccc2s1: < 500 nM
2. Cc1ncoc1C(=O)N1CC2(CC2)c2[nH]cnc2[C@@H]1c1nc2ccccc2s1: > 5000 nM
3. O=C(Cc1nc(C(F)(F)F)cs1)N1CCc2[nH]cnc2[C@@H]1c1nc2ccccc2s1: > 5000 nM

Lookup result for `[2H][C@@]1(c2nc3ccccc3s2)c2nc[nH]c2CCN1C(=O)c1ocnc1C` ; measured AC50: < 500 nM

Lookup result for `O=C(c1cnn2ccccc12)N1CCc2[nH]cnc2[C@@H]1c1nc2c(Cl)cccc2s1` ; measured AC50: 1000 to 5000 nM

Lookup result for `Cc1ccc2nc([C@@H]3c4nc[nH]c4CCN3C(=O)c3cncs3)sc2c1` ; measured AC50: 500 to 1000 nM

Lookup result for `O=C(c1ocnc1C1CC1)N1CCc2[nH]cnc2[C@H]1c1nc2ccccc2s1` ; measured AC50: < 500 nM

Lookup result for `O=C(c1nccs1)N1CCc2[nH]cnc2[C@H]1c1nc2ccccc2[nH]1` ; measured AC50: 500 to 1000 nM

Lookup result for `O=C(CCc1nccs1)N1CCc2[nH]cnc2[C@H]1c1nc(Br)cs1` ; measured AC50: 1000 to 5000 nM

Lookup result for `O=C(c1cnc(-c2ccc(F)cc2)o1)N1CCc2[nH]cnc2[C@@H]1c1nc2ccccc2s1` ; measured AC50: 1000 to 5000 nM

Lookup result for `Cc1nnc(C(=O)N2CC3(CC3)c3[nH]cnc3[C@@H]2c2nc3ccccc3s2)o1` ; measured AC50: 1000 to 5000 nM

Lookup result for `Cn1nc(C(F)F)cc1C(=O)N1CCc2[nH]cnc2[C@H]1c1nc2c(F)cccc2s1` ; measured AC50: < 500 nM
